- system_under_test: Protein cereblon/ALK tyrosine kinase receptor (Homo sapiens, UniProt Q9UM73+Q96SW2)
- Sequence (Q96SW2 whole entry partner): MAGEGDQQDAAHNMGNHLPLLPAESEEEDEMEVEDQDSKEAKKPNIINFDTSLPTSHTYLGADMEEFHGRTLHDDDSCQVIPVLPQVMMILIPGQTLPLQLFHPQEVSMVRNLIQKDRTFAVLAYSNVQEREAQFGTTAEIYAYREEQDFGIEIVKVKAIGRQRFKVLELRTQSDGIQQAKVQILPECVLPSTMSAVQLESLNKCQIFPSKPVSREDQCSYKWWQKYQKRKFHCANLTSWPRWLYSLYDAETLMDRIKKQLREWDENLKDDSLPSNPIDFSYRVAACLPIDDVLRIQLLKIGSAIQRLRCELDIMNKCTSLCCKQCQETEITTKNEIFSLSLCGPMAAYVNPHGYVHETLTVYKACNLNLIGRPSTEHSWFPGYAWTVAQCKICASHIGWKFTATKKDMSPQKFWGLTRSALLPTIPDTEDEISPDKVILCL
- Sequence (Q9UM73 19-1620 limits assumed): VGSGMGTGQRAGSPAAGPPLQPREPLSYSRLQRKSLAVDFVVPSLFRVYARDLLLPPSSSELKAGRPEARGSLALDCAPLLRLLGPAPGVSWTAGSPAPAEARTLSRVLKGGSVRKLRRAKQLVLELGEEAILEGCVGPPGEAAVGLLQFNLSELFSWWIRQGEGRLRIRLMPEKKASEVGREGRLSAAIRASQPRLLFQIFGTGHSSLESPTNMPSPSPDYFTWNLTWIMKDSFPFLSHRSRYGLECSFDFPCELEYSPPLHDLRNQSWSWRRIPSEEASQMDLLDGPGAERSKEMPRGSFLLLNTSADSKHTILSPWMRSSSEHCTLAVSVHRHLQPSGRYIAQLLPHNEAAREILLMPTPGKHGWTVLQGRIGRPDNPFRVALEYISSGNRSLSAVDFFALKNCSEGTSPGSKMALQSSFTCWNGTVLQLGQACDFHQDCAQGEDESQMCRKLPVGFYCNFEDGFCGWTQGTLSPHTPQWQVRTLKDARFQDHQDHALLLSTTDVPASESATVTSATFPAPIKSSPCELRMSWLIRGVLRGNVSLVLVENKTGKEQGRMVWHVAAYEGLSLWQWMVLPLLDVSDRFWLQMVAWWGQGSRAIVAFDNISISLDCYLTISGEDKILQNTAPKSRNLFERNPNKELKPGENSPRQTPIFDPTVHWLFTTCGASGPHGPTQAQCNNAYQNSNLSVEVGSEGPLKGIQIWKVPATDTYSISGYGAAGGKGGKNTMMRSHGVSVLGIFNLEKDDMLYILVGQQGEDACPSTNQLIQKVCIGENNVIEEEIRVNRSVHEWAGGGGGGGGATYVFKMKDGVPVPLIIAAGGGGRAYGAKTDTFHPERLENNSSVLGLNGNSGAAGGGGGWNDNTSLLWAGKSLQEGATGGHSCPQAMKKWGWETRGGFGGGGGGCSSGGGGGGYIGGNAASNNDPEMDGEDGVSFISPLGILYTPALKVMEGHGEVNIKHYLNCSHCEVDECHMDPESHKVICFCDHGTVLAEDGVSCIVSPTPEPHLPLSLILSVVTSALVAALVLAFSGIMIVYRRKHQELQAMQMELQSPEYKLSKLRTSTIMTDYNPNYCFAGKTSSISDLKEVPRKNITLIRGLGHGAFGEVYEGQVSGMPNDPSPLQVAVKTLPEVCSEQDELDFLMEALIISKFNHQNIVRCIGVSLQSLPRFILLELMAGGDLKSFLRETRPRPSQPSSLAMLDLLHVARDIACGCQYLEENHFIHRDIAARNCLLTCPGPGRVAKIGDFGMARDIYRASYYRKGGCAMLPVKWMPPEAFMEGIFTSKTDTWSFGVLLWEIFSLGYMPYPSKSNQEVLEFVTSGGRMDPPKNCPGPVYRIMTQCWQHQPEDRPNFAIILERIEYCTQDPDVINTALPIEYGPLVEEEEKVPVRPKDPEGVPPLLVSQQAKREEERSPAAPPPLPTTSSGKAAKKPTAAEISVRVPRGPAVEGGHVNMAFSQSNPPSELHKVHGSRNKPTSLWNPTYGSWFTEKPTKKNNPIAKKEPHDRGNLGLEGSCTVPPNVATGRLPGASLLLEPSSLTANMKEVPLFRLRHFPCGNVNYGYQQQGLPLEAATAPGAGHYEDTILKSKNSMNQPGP
- test_summary: Protac activity at CRBN/ALK in human SR cells assessed as protein abundance at 0.05 nM by Western blot analysis (reference value: 1)
- Type: cell-based
measurement_label: Activity

{"compound": "CCc1cc2c(cc1N1CCC(N3CCN(CCCCCC#Cc4cccc5c4CN(C4CCC(=O)NC4=O)C5=O)CC3)CC1)C(C)(C)c1[nH]c3cc(C#N)ccc3c1C2=O (stereo unspecified)", "system_under_test": "Protein cereblon/ALK tyrosine kinase receptor (Homo sapiens, UniProt Q9UM73+Q96SW2)", "measurement_label": "Activity", "value": 1.08}
{"compound": "CCc1cc2c(cc1N1CCC(N3CCN(C(=O)CNc4cccc5c4CN(C4CCC(=O)NC4=O)C5=O)CC3)CC1)C(C)(C)c1[nH]c3cc(C#N)ccc3c1C2=O (stereo unspecified)", "system_under_test": "Protein cereblon/ALK tyrosine kinase receptor (Homo sapiens, UniProt Q9UM73+Q96SW2)", "measurement_label": "Activity", "value": 0.9}
{"compound": "CCc1cc2c(cc1N1CCC(N3CCN(C(=O)CCCNc4cccc5c4C(=O)N(C4CCC(=O)NC4=O)C5=O)CC3)CC1)C(C)(C)c1[nH]c3cc(C#N)ccc3c1C2=O (stereo unspecified)", "system_under_test": "Protein cereblon/ALK tyrosine kinase receptor (Homo sapiens, UniProt Q9UM73+Q96SW2)", "measurement_label": "Activity", "value": 1.05}
{"compound": "CCc1cc2c(cc1N1CCN(C(=O)CNc3cccc4c3C(=O)N(C3CCC(=O)NC3=O)C4=O)CC1)C(C)(C)c1[nH]c3cc(C#N)ccc3c1C2=O (stereo unspecified)", "system_under_test": "Protein cereblon/ALK tyrosine kinase receptor (Homo sapiens, UniProt Q9UM73+Q96SW2)", "measurement_label": "Activity", "value": 1.17}
{"compound": "CCc1cc2c(cc1N1CCC(N3CCN(CCCC#Cc4cccc5c4CN(C4CCC(=O)NC4=O)C5=O)CC3)CC1)C(C)(C)c1[nH]c3cc(C#N)ccc3c1C2=O (stereo unspecified)", "system_under_test": "Protein cereblon/ALK tyrosine kinase receptor (Homo sapiens, UniProt Q9UM73+Q96SW2)", "measurement_label": "Activity", "value": 1.03}
{"compound": "CCc1cc2c(cc1N1CCC(N3CCN(C(=O)CCOCCOCCOCCOCCNc4cccc5c4C(=O)N(C4CCC(=O)NC4=O)C5=O)CC3)CC1)C(C)(C)c1[nH]c3cc(C#N)ccc3c1C2=O (stereo unspecified)", "system_under_test": "Protein cereblon/ALK tyrosine kinase receptor (Homo sapiens, UniProt Q9UM73+Q96SW2)", "measurement_label": "Activity", "value": 1.01}
